Record form. Attribute: Nb2-11 proliferation IC50. Fill in for each entry.
Molecular target: T1, rat PRLR on Nb2-11 rat lymphoma cells (rat, UniProt P05710 20-610)
T1 sequence (looked up): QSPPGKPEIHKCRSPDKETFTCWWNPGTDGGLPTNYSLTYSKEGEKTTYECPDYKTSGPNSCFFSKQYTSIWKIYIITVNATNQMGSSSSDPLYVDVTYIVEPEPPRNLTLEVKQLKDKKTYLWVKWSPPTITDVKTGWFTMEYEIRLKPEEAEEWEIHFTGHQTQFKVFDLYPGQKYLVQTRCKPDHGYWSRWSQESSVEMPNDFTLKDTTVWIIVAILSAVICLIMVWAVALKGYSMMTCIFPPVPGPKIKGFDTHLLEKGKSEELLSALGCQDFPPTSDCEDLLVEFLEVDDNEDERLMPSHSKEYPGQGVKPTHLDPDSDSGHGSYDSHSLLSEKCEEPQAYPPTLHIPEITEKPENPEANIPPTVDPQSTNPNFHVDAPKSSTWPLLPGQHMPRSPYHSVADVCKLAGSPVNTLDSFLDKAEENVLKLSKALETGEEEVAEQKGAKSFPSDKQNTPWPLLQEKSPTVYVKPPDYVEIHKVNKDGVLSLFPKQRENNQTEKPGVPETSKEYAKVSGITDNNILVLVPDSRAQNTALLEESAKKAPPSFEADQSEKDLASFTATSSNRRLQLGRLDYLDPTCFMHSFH
Experiment: cell-based or functional assay
The reply should be a number in µg/mL, with the unit left off.

So, Ab7 (antibody, V domains shown, murine monoclonal, isotype G1; also called murine Ab7) VH: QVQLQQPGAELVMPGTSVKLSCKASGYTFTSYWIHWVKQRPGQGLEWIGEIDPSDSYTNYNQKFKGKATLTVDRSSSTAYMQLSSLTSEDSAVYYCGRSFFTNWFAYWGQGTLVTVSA VL: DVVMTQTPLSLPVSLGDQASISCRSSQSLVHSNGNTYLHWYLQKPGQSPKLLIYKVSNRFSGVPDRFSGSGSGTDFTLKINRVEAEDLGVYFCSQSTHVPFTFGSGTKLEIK ? Its Nb2-11 proliferation IC50 was 4.42

So, LFA102 (antibody, human IgG1, kappa, V domains shown, humanized IgG1 kappa comparator (WO 2008022295)) VH: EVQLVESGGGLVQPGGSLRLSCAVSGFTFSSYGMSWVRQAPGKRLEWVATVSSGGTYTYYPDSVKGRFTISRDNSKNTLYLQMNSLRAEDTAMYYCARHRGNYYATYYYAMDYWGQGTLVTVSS VL: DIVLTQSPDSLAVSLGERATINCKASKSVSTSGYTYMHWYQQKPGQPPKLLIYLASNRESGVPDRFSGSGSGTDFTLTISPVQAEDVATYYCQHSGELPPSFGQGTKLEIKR ? Its Nb2-11 proliferation IC50 was 0.93

So, chAb7 (antibody, human IgG1, kappa, V domains shown, chimeric, murine variable and human G1/kappa constant regions) VH: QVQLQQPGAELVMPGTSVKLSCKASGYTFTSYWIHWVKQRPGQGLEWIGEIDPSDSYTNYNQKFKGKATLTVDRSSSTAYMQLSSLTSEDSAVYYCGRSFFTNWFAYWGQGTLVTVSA VL: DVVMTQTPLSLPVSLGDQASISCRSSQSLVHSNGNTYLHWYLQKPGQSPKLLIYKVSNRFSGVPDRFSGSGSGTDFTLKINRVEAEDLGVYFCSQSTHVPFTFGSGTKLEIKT ? Its Nb2-11 proliferation IC50 was 16.8
